Ref: patent US12528814B2

target: IRAK4 (Homo sapiens (Human)); assay: IRAK4 Degradation HiBiT Assay; details: Jurkat, read-out: Cellular IRAK4 HiBiT: Dmax, Table 5; multiple runs; HiBiT-tagged Jurkat cells, 4 hrs
Sequence (Q9NWZ3 whole entry): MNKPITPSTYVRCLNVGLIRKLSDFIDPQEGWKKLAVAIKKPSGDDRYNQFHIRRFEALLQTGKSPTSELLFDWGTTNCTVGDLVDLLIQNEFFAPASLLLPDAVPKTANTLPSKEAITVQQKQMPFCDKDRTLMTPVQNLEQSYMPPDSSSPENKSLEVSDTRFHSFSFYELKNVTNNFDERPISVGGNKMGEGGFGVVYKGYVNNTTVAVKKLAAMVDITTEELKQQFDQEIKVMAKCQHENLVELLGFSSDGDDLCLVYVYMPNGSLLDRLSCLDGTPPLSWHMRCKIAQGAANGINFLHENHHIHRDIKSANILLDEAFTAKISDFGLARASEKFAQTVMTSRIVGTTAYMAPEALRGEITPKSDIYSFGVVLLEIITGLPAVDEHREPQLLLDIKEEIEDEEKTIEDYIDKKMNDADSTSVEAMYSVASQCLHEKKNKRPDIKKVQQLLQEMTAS
readout: Dmax (%)

Reference set (5 entries):
molecule	Dmax, %
CC(C)Nc1cc(-c2ccc3cc(C#N)cnn23)ncc1-c1nnc(N2CCN(C3CCN(C(=O)CNc4cccc5c4C(=O)N(C4CCC(=O)NC4=O)C5=O)CC3)CC2)s1 (centres unmarked) [Example 74]	82
CNc1cc(-c2ccc3cc(C#N)cnn23)ncc1-c1nnc([C@H]2CC[C@H](NC(=O)CCC(=O)N[C@H](C(=O)N3C[C@H](O)C[C@H]3C(=O)N[C@@H](C)c3ccc(Br)cc3)C(C)(C)C)CC2)s1 [Example 172]	28
CNc1cc(-c2ccc3cc(C#N)cnn23)ncc1-c1nnc(N2CCC(NC(=O)C[C@H](NC(=O)[C@@H]3C[C@@H](O)CN3C(=O)[C@@H](NC(=O)C3(F)CC3)C(C)(C)C)c3ccc(-c4scnc4C)cc3)CC2)s1 [Example 146]	77
Cc1ncsc1-c1ccc(CNC(=O)[C@@H]2C[C@@H](O)CN2C(=O)C(NC(=O)[C@H]2CC[C@H](C(=O)N3CCN(c4nnc(-c5cnc(-c6ccc7cc(C#N)cnn67)cc5NC(C)C)s4)CC3)CC2)C(C)(C)C)cc1 (some centres unmarked) [Example 45]	83
CC(C)Nc1cc(-c2ccc3cc(C#N)cnn23)ncc1-c1nnc(N2CCN(C(=O)CCN3CCN(c4ccc5c(c4)C(=O)N(C4CCC(=O)NC4=O)C5=O)CC3)CC2)s1 (centres unmarked) [Example 14]	97

[P] CC(C)Nc1cc(-c2ccc3cc(C#N)cnn23)ncc1-c1nnc(N2CCC(NC(=O)C3CCN(c4ccc5c(c4)C(=O)N(C4CCC(=O)NC4=O)C5=O)CC3)CC2)s1 (centres unmarked) [Example 25]
[Q] CNc1cc(-c2ccc3cc(C#N)cnn23)ncc1-c1nnc([C@H]2CC[C@H](NC(=O)COc3cc(-c4scnc4C)ccc3CNC(=O)[C@@H]3C[C@@H](O)CN3C(=O)[C@@H](NC(=O)C3(F)CC3)C(C)(C)C)CC2)s1 [Example 159]
Req: Between P and Q , which one shows the larger Dmax value? # answer = label of selected item
Resp: Q

[I] CC(C)Nc1cc(-c2ccc3cc(C#N)cnn23)ncc1-c1nnc(N2CCN(C(=O)CN3CCC4(CC3)CN(c3ccc5c(c3)C(=O)N(C3CCC(=O)NC3=O)C5=O)C4)CC2)s1 (centres unmarked) [Example 15]
[II] CC(C)Nc1cc(-c2ccc3cc(C#N)cnn23)ncc1-c1nnc(N2CCN(CCC3CCN(c4ccc5c(c4)C(=O)N(C4CCC(=O)NC4=O)C5=O)CC3)CC2)s1 (centres unmarked) [Example 16]
Req: Identify the item whose Dmax is the smaller number: I or II # answer = label of selected item
Resp: II
(II: 53%, I: 85%)

[A] CNc1cc(-c2ccc3cc(C#N)cnn23)ncc1-c1nnc([C@H]2CC[C@H](N(C)C(=O)C3CCN(c4ccc5c(c4)C(=O)N(C4CCC(=O)NC4=O)C5=O)CC3)CC2)s1 (some centres unmarked) [Example 169]
[B] CNc1cc(-c2ccc3cc(C#N)cnn23)ncc1-c1nnc(N2CCN(C3CCN(Cc4ccc(C(=O)NC5CCC(=O)NC5=O)cc4)CC3)CC2)s1 (centres unmarked) [Example 145]
Req: Between A and B , which one shows the larger Dmax value? # answer = label of selected item
Resp: A

---

target: IRAK4 (Homo sapiens (Human)); assay: IRAK4 Degradation HiBiT Assay; conditions: Jurkat, read-out: Cellular IRAK4 HiBiT: Dmax, Table 5; multiple runs; HiBiT-tagged Jurkat cells, 4 hrs
readout: Dmax (%)

Reference set (5 entries):
molecule	Dmax, %
CC(C)Nc1cc(-c2ccc3cc(C#N)cnn23)ncc1-c1nnc(N2CCN(CCCc3cccc4c3CN(C3CCC(=O)NC3=O)C4=O)CC2)s1 (centres unmarked) [Example 29]	90
CNc1cc(-c2ccc3cc(C#N)cnn23)ncc1-c1nnc(N2CCN(C3CCN(C(=O)c4ccc5c(c4)C(=O)N(C4CCC(=O)NC4=O)C5)CC3)CC2)s1 (centres unmarked) [Example 99]	116
Cc1ncsc1-c1ccc(CNC(=O)[C@@H]2C[C@@H](O)CN2C(=O)[C@@H](NC(=O)C2(F)CC2)C(C)(C)C)c(OCCOCCC(=O)N2CCN(c3nnc(-c4cnc(-c5ccc6cc(C#N)cnn56)cc4NC(C)C)s3)CC2)c1 [Example 47]	118
CNc1cc(-c2ccc3cc(C#N)cnn23)ncc1-c1nnc(N2CCN(C3CCN(C(=O)c4ccc5c(c4)C(=O)N(C4CCC(=O)NC4=O)C5=O)CC3)CC2)s1 (centres unmarked) [Example 98]	109
Cc1ncsc1-c1ccc(CNC(=O)[C@@H]2C[C@@H](O)CN2C(=O)[C@@H](NC(=O)C2(F)CC2)C(C)(C)C)c(OCCOCCOCCOCCC(=O)N2CCN(c3nnc(-c4cnc(-c5ccc6cc(C#N)cnn56)cc4NC(C)C)s3)CC2)c1 [Example 49]	111

[1] CNc1cc(-c2ccc3cc(C#N)cnn23)ncc1-c1nnc([C@H]2CC[C@H](NC(=O)C3CCN(c4cccc5c4C(=O)N(C4CCC(=O)NC4=O)C5=O)CC3)CC2)s1 (some centres unmarked) [Example 139]
[2] CNc1cc(-c2ccc3cc(C#N)cnn23)ncc1-c1nnc([C@H]2CC[C@H](NC(=O)CCOCCNc3cccc4c3C(=O)N(C3CCC(=O)NC3=O)C4=O)CC2)s1 (some centres unmarked) [Example 71]
Req: Identify the item whose Dmax is the smaller number: 1 or 2 # answer = label of selected item
Resp: 1

[I] CNc1cc(-c2ccc3cc(C#N)cnn23)ncc1-c1nnc(N2CCC(NC(=O)COc3cc(-c4scnc4C)ccc3CNC(=O)[C@@H]3C[C@@H](O)CN3C(=O)[C@@H](NC(=O)C3(F)CC3)C(C)(C)C)CC2)s1 [Example 97]
[II] CC(C)Nc1cc(-c2ccc3cc(C#N)cnn23)ncc1-c1nnc(N2CCN(C(=O)CCOCCNc3ccc4c(c3)C(=O)N(C3CCC(=O)NC3=O)C4=O)CC2)s1 (centres unmarked) [Example 10]
[III] CNc1cc(-c2ccc3cc(C#N)cnn23)ncc1-c1nnc(C23CCC(NC(=O)C4CCN(c5cccc6c5C(=O)N(C5CCC(=O)NC5=O)C6=O)CC4)(CC2)CC3)s1 (centres unmarked) [Example 136]
Req: Arrange items by their Dmax values in increasing order. State the ranking by listing the labels in the requested order.
Resp: III, I, II
(III: 35%, I: 59%, II: 103%)

[a] CC(C)Nc1cc(-c2ccc3cc(C#N)cnn23)ncc1-c1nnc(N2CCN(C3CCN(C[C@H]4CCN(c5ccc6c(c5)C(=O)N(C5CCC(=O)NC5=O)C6=O)C4)CC3)CC2)s1 (some centres unmarked) [Example 17]
[b] CC(C)Nc1cc(-c2ccc3cc(C#N)cnn23)ncc1-c1nnc(N2CCN(CC3CCN(c4cccc5c4n(C)c(=O)n5C4CCC(=O)NC4=O)CC3)CC2)s1 (centres unmarked) [Example 32]
Req: Identify the item whose Dmax is the smaller number: a or b # answer = label of selected item
Resp: b
(b: 37%, a: 77%)

---

target: Aiolos (Homo sapiens (Human), UniProt Q96SW2+Q9UKT9); experiment: Flow Cytometry-Based Assay for Aiolos Degradation; format: cell-based; conditions: Jurkat cells (Clone E6-1), 24 hours
Sequence (Q9UKT9 whole entry): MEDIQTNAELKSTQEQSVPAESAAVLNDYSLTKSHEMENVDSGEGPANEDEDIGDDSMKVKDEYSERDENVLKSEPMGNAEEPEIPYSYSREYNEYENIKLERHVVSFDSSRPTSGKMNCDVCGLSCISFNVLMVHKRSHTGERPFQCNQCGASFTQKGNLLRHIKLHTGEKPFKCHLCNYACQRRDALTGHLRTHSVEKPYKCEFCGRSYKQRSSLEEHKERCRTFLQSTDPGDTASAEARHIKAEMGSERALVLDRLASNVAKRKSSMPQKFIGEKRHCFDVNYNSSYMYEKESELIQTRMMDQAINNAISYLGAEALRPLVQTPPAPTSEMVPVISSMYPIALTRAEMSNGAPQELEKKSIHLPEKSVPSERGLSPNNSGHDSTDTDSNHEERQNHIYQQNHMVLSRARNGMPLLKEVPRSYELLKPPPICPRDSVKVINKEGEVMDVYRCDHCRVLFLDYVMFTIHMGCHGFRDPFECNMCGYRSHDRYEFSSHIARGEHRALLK
Sequence (Q96SW2 whole entry): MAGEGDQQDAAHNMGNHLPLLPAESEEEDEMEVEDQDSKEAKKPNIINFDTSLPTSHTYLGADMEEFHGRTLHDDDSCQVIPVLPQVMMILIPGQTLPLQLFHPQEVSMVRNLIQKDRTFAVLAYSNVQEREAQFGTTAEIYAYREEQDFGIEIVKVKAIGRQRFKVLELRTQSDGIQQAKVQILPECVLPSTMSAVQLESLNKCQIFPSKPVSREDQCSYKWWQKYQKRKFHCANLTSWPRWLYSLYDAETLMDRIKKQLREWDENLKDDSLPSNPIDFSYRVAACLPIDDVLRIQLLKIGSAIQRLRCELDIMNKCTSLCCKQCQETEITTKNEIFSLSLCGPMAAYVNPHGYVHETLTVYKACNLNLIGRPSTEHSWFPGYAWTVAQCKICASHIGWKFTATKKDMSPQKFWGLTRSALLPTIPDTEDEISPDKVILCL
Sequence (Q16531 whole entry partner): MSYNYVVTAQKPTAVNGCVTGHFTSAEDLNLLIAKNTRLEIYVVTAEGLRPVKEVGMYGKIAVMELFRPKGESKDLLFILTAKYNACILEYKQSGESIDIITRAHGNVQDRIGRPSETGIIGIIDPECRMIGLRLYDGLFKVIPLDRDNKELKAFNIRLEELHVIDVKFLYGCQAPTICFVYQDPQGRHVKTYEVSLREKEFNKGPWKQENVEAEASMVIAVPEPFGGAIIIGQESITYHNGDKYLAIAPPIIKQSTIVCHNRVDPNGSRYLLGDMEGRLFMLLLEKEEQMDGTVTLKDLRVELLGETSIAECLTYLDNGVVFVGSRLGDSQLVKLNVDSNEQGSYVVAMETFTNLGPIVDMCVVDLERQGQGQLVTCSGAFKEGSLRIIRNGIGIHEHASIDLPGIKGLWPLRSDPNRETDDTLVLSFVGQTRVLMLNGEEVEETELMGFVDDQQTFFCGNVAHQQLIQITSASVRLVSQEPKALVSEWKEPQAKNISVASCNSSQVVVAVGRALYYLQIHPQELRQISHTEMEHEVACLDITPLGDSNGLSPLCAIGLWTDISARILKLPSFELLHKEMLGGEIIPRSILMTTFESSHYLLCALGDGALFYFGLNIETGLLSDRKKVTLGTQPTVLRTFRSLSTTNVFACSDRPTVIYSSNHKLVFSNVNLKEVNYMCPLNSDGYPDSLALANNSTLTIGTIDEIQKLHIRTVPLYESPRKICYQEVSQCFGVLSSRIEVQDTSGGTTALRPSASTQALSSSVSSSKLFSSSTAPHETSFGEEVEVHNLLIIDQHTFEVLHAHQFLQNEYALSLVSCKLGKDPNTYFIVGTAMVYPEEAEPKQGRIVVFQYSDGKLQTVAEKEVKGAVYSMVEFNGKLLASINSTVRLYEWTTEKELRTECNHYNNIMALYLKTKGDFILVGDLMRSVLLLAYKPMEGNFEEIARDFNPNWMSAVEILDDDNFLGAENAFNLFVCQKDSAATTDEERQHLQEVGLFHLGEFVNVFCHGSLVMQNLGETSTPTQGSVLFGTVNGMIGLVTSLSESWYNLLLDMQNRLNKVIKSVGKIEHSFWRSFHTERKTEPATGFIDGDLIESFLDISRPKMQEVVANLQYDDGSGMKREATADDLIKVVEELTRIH
DC50 overview

Req: Report the value of DC50 obtained on Aiolos (Homo sapiens (Human), UniProt Q96SW2+Q9UKT9) for NC(=O)c1nn(-c2ccc(C(=O)NCCOCCOCCNc3cccc4c3C(=O)N(C3CCC(=O)NC3=O)C4=O)cc2)cc1NC(=O)c1coc(-c2ccnc(NCC(F)(F)F)c2)n1 (stereo not drawn) [Comparative Compound a2, reference compound] .
Resp: 0.02 µM

---

molecular target: IRAK4 (Homo sapiens (Human)); experiment: IRAK4 Degradation HiBiT Assay; conditions: read-out: Cellular IRAK4 HiBiT: DC50; Table 5; multiple runs; HiBiT-tagged Jurkat cells, 4 hrs
readout: DC50 (nM)

Reference set (4 entries):
compound	unit-tag	measured-value
CNc1cc(-c2ccc3cc(C#N)cnn23)ncc1-c1nnc([C@H]2CC[C@H](N(C)CC3CCN(c4ccc(C(=O)NC5CCC(=O)NC5=O)nc4)CC3)CC2)s1 (stereo partly drawn) [Example 167]	nM	20.1
CC(C)Nc1cc(-c2ccc3cc(C#N)cnn23)ncc1-c1nnc(N2CCN(C(=O)C3CCN(CC4CCN(c5ccc6c(=O)n(C7CCC(=O)NC7=O)ccc6c5)CC4)CC3)CC2)s1 (stereo not drawn) [Example 21]	nM	251
CNc1cc(-c2ccc3cc(C#N)cnn23)ncc1-c1nnc([C@H]2CC[C@H](NC(=O)CCC(=O)N[C@H](C(=O)N3C[C@H](O)C[C@H]3C(=O)N[C@@H](C)c3ccccc3)C(C)(C)C)CC2)s1 [Example 173]	nM	612
CNc1cc(-c2ccc3cc(C#N)cnn23)ncc1-c1nnc([C@H]2CC[C@H](N(C)CC3CCN(c4ccc(C(=O)N(C)C5CCC(=O)NC5=O)cc4)CC3)CC2)s1 (stereo partly drawn) [Example 189]	nM	192

[P] CNc1cc(-c2ccc3cc(C#N)cnn23)ncc1-c1nnc([C@H]2C[C@H](NC(=O)CN3CCN(c4ccc5c(c4)C(=O)N(C4CCC(=O)NC4=O)C5=O)CC3)C2)s1 (stereo partly drawn) [Example 190]
[Q] CNc1cc(-c2ccc3cc(C#N)cnn23)ncc1-c1nnc(C23CCC(NC(=O)CCOCCNc4cccc5c4C(=O)N(C4CCC(=O)NC4=O)C5=O)(CC2)CC3)s1 (stereo not drawn) [Example 111]
Req: Between P and Q , which one shows the larger DC50 value? # answer = label of selected item
Resp: Q
(Q: 15.8 nM, P: 7.75 nM)

[a] CC(C)Nc1cc(-c2ccc3cc(C#N)cnn23)ncc1-c1nnc(N2CCN(CC3CCN(c4ccc5c(=O)n(C6CCC(=O)NC6=O)ccc5c4)CC3)CC2)s1 (stereo not drawn) [Example 72]
[b] CNc1cc(-c2ccc3cc(C#N)cnn23)ncc1-c1nnc([C@H]2CC[C@H](NC(=O)CCOCCOc3cc(-c4scnc4C)ccc3CNC(=O)[C@@H]3C[C@@H](O)CN3C(=O)[C@@H](NC(=O)C3(F)CC3)C(C)(C)C)CC2)s1 [Example 58]
[c] CNc1cc(-c2ccc3cc(C#N)cnn23)ncc1-c1nnc([C@H]2CC[C@H](NC(=O)CCOCCNc3cccc4c3C(=O)N(C3CCC(=O)NC3=O)C4=O)CC2)s1 (stereo partly drawn) [Example 71]
[d] CNc1cc(-c2ccc3cc(C#N)cnn23)ncc1-c1nnc(N2CC3(CCN(C(=O)C4CCN(c5ccc6c(c5)C(=O)N(C5CCC(=O)NC5=O)C6=O)CC4)CC3)C2)s1 (stereo not drawn) [Example 176]
Req: Arrange items by their DC50 values in increasing order. State the ranking by listing the labels in the requested order.
Resp: c, d, b, a
(c: 5.87 nM, d: 31.5 nM, b: 73.7 nM, a: 189 nM)
